System: K4 kissing-loop RNA reporter
Assay: apparent KD of K4 kissing-loop reporter; higher = weaker reporter binding
Details: Eterna round: R107; input ligand: FMN 200 uM
Group membership follows apparent KD of K4 kissing-loop reporter per the scheme low end: < 200 nM; middle: ≥ 200 nM and < 400 nM; high end: ≥ 400 nM

Record excerpt, results attached:
primary sequence: CGUUCCUCUGUCGAUACCAGCUUCAGUUGGCGGCCAGUGAUGUUGGUAUUGCCGAUGCCAAGCCCUUGGCAGCGAUAUGAGACCC [Aredi]
group: high end

primary sequence: UUUUAAUGCAGUGAUGUUGCUAAUAAAACAGAGGAUAUGCAUGGAAGCAGAAGGCUGAUAUAUUAUACUUUAAUAUAUUAUAUUU [JR_SSFMNA_Sub011]
group: low end

primary sequence: AGUGAUGUUGUGUUAUCUUAGUGAAGUGAUCGAGGACCGGUACGGCCGCCACUCGAGUGAUGAGUGAGUGAUGUUUGUUUAGGGA [vvbmullin]
group: high end

primary sequence: AAGCAGUCGCUCGAAGCCAUCGAAGAUGGGCGAGGACCGGUACGGCCGCCACUCGGAGUGAUGUUCCGAGGACUGCAAAAUAAAA [MatMod 5 - Jieux - Exclusion - Tryptophan A]
group: high end

primary sequence: AGGUUUUGCGGAGGAUAUGCACUGAGGAGGAGAAUAUAGUGAUGUUAUAUAAGAGGAAGGAGAAGAGUAGAAGGCCGUGAGGUUU [SSFMNB.N]
group: low end

[in] Which class holds UGAUACCAGACGGCCGCCACUCUUGCAGUCAAAGACUGCUAAAAGGAAAUCGUCCAGUGAUGUUGGAGGACCGGGUCUGGUAUCU [TrypBX 15 #SwitchBubble #Palindromic #StaticStem] ?
[out] high end

[in] Which class holds UUUUAUUAGUAGUGAUGUUACUAAACUGAAGGAGCGAGAUUUAACUCAGGUAGGUCGCAGAAAAUCAAUUAAUUUAUAAAUUAAA [JR_SSArginiA_Sub011] ?
[out] low end

[in] Which class holds GGGCGUAUUCACCGAGUGAUGUUCGGAAGGAAGGAUAUUCAAGAUUGAAGAAGGUCCGGCCCAUCGGCCAUUAAACUUGAAAGGU [theeternabot_sameState_KL_FMN_A_48] ?
[out] low end

[in] Which class holds UGUGUUUACCUGACUCAGUGAUGUUGAGAAGGAGCGUGCUAAGGCACAGGUAGGUCGCUCAACCUAAAUUCAGGUGAGCACUAAA ?
[out] middle

[in] Which class holds UUUUUGGAGAAUUAUAGUGAUGUUAUGAAGGAGGAUAUCUGGAGAUGGAGAAGGCCUAGUGGCUCAGCCCUGGAGGGUGGGUGGG [ExFMNA.aB] ?
[out] high end

[in] Which class holds AUGCUGUCGGCGUUAAAGUAGUAAUGUGAUACCAGAAAUGCUGUGUUCCCUUGGCAGCACAUUCUUACAGACAGUGAUGUUGUCU [theeternabot_exclusion_KL_Theo_A_8] ?
[out] high end

[in] Which class holds UUGUUUGGUUGAGAGGUUGGGCGAGAUGAUACCAGUAUAGUAUAGUACCCUUGGCAGCAUAGGAGAGAUAUAGUGAUGUUGUAUG [SSTheophA.V] ?
[out] high end

[in] Which class holds GCAGUGAUGUUGCGAAUCGGCCAUGAUACAGAGGAUAUCGUGCCUUCGAGAAGGUUGUAUAGAGGAUACGAUAUUAUAAAUGACG [Same State FMN A GF 1] ?
[out] middle

[in] Which class holds GUCCAACCUGGAGGAUAUCUGCUGUCCAGUGAUGUUGGACACCUUAGUAAAGGCCGGGUAGCCCGCAGAGAAGGCCGGAGUUGCC [Isateron] ?
[out] middle

[in] Which class holds GUUGUAUACUGAAGGAGCGAGUAGUGGAAACAUAAACUCAUUGCGAGUGAUGUUCGCGGUACUCAGGUAGGUCGCGGUAAUCGUA [Exclusion Arginine B Gf 11] ?
[out] high end

[in] Which class holds UGGAUAUAGUGAUGUUAUAUAGAGAUGGAUACCAGCAGAGAGAAUUGCCCUUGGCAGCCGAAAGAAGUAUCAUUAGAGAAGAAUG [ExTheophyl.Ai] ?
[out] middle

[in] Which class holds CAUCACGCAAUCACGGAUGCAAGCAUUGAUACCAGAACCGAUUAUUUCCCUUGGCAGCAACACGGAGUGAUGUUCCUAGCAUAUA [theeternabot_sameState_KL_Theo_A_21] ?
[out] low end

[in] Which class holds ACAUUAGCGAGUGAUGUUCGCUAAGACGAAGGAGCGCUCGCGAGAGCAGGUAGGUCGCGUCUAGUGUCACUGUACUAAAUAGUGA [Arg A SS t12] ?
[out] low end

====

Tested on: MS2 coat protein
Experiment: apparent KD of MS2 coat protein; higher = weaker reporter binding
Settings: Eterna round: R107; input ligand: theophylline 2 mM
Item-by-item account of apparent KD of MS2 coat protein
Number only, in nM; omit the unit.

primary sequence: GGUGGCUGGAUCGAUACCAGCCACCACCGAUAGACCACAUGAGGAUCACCCAUGUUGGGUGGCCCUUGGCAGCGGUCCAGCUGCC [#1 Same State - Theophylline B Attempt #5 (HarryS)]
experimental target: MS2 coat protein
units of measure: nM
measured number: 1240

[in] Give the reported apparent KD of MS2 coat protein for this sequence. CGUGAUACUGGUAUACUCUGAAGAUCAAUUCGAGGACCGGUACGGCCGCCACUCGUUAGUAGACAUGAGGAUCACCCAUGUUAGU [theeternabot_exclusion_MS2_Trp_A_48]
[out] 17.7

[in] Give the reported apparent KD of MS2 coat protein for this sequence. CAUCCUAGUACAUGAGGAUCACCCAUGUAUCGAGGACCGGUACGGCCGCCACUCGAAUGGCGGAUCGUUGAUCCUUUAGGAUGAA [Tryp A Ex t4]
[out] 20.9

[in] Give the reported apparent KD of MS2 coat protein for this sequence. ACAUGAGGAUCACCCAUGUUCAUGCGGGAAGGAGCGUGCGGAAGCACAGGUAGGUCGCCCUCAAUAUCUAACGUUACGUUCAUGA [#26 Same State - Arginine A]
[out] 14.4

====

System: K4 kissing-loop RNA reporter;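 further: bound reporter read as fluorescence of individual clusters on recovered sequencing chips by microscopy, with normalized cluster intensities fitted with a binding model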
Assay: apparent KD of K4 kissing-loop reporter; higher = weaker reporter binding
Settings: Eterna round: R107; input ligand: FMN 200 uM
Decide by apparent KD of K4 kissing-loop reporter: equal to or exceeding 200 nM means T, less means F.

Record excerpt, results attached:
primary sequence: UGACUGGACUGAAGGAGCGCGCGAGACAAAGUCUCGAACUCUUAGUGAUGUUAGGAAAUAACGCAGGUAGGUCGCAGUCUAGUCU
group: T
--
primary sequence: AUGCCUAUGACGGCCGCCACUGAGAGUCAGUGAUGUUGACUCGAUACAGCUGAUUAGCAGCUAAUCAGGACCGGGUCAUACACAU [Tryp B SS t3]
group: T
--
primary sequence: AGGUUUUGAUUAGGAUAUGCACUGACGACGAGAAUAUAGUGAUGUUAUAUAAUACGAAUUAGUAGAGUAGAAGGGAUUGAGGUUU [SSFMNB.X]
group: T
--
primary sequence: GGAUAGGAUAGAGGAUAUGGCUUACGCAGAAAUAACUUAUUGUGUAAAUCCAUAGGGAGUGAUGUUCCAGAAGGCUGUCCUAUCG [MatMod 17 - Jieux - Exclusion - FMN B]
group: T
--
primary sequence: AUCGUUGUCUGAGGAUAUCGGUUAUCUGUAGUGAUGUUACAGUAUAUUCAUAUUAUACUUUCUAUUCGAGAAGGCAGACUACGUA [JR_Nu_ExcFMNB_Sub020]
group: F
--
primary sequence: UGCUUUAUCAGAAGGAGCGGGUUGUUCAUAAUAAUAAUCAGUGAUGUUGAUAUAUGAUGAUUCCAGGUAGGUCGCUGAUAUAGCU [KL-XARG-B2]
group: T
--
primary sequence: AUUCGUUUAUGUGAUACCAGACUUUGCAGUGAUGUUGCAUUAAUUAUUGAUGAUUAGUUUGUCCCUUGGCAGCACUAUUUAUUUA [JR_SSTheophyB_Sub003]
group: F
--
primary sequence: GGAUCCACCAGUGAUGUUGGAGUAAUCUCCAAGGAUAUGACGAAAGUCAGAAGGUGGUAAAUAGACGUCAAAGACGUCGGAUCCA [FmnA 22 #SwitchBubble #K4Early]
group: T
--
primary sequence: UGUUAUGUAUCAGGAUAUUAGUGAUGUUUGUUUAUGUUAGUGAUGUUGAUAUUUGUUUUAUGUAUUUAAGAAGGGAUUGAGAUGU [dcdmullin]
group: F
--
primary sequence: GCACACUAGUAAACUAGUGUGUUAACUGAAGGAGCGUGAAUAAUCACAGGUAGGUCGCAGUUUGUCAGUGAUGUUGACACGAGUG [Arg A SS t2]
group: F

[in] Tell me whether apparent KD of K4 kissing-loop reporter is at least 200 nM here: UGACUGGACUGAAGGAGCGCUAAAACUCCUAGUGAUGUUGGGAAAACGAGACAAAGUCUCGAGCAGGUAGGUCGCAGUCUAGUCU [ArgBS 22 #SwitchBubble #StaticStem]
[out] T

[in] Tell me whether apparent KD of K4 kissing-loop reporter is at least 200 nM here: UGAUUUAACUGAAGGAGCGGCAAUUGAUAAGGAAAUAUAGUGAUGUUAUAUAAGAGAGAGAGCCAGGUAGGUCGCAGAGGGAGGA [ExArgB.H]
[out] F

These measurements were taken from the supplement of paper PMC9170038.
